test system: green peach aphid (Myzus persicae (Sulzer)); assay: Test E: control of green peach aphid through contact and/or systemic means; assay type: in vivo; settings: 144 h, sprayed at 50 ppm, assessed after 6 days
Parameter: mortality at 50 ppm

O=C(Nc1ccc(Cl)c(CNC(=O)C(F)(F)F)c1)C1C(c2ccc(F)c(C(F)(F)F)c2)C1(Cl)Cl (centres unmarked) = ≥ 80%
O=C(NCc1cc(NC(=O)C2C(c3ccc(F)c(C(F)(F)F)c3)C2(Cl)Cl)ccc1Cl)C1CC1 (centres unmarked) = ≥ 80%
O=C(Nc1ccc(Cl)c(CNC(=O)C(F)(F)F)c1)C1C(c2ccc(F)c(Cl)c2)C1(Cl)Cl (centres unmarked) = ≥ 80%
CCC(=O)NCc1cc(NC(=O)C2C(c3cc(Cl)cc(Cl)c3)C2(Cl)Cl)ccc1F (centres unmarked) = ≥ 80%

Hello, please tell me recorded mortality at 50 ppm for this one: O=C(CC(F)(F)F)NCc1cc(NC(=O)C2C(c3ccc(F)c(C(F)(F)F)c3)C2(Cl)Cl)ccc1F (centres unmarked) ≥ 80%
